Provide the reported autophagy induction of each item.
- Test system: U2OS
- TEST SUMMARY: Here: values are normalized to the negative (DMSO; defined as 0% autophagy induction) and positive (250nM Torin1; mTOR inhibitor; defined as maximal inducer of autophagy = 100%) control compounds and represented as % of autophagy induction. […] The impact of autophagy induction on cells is complex and depends on the affected target. As such, the magnitude of a phenotype may not be equally mirrored in the %-value of autophagy induction and vice versa. The dynamics of the induction may indicate the mode of activation: e.g. activation via phosphorylation or a signaling cascade may occur fast, while activation via transcription factors may take considerably longer. […] Of note, treatment concentrations may be sub-optimal for specific compounds, leading to false negative annotations.
- Type: functional, Homo sapiens
- CONDITION PARAMETERS: Compound Concentration 2 uM, Timepoint 12 hours, Culturing Media DMEM, 1 % Penicillin/Streptomycin, 10% Fetal bovin serum Add-On: No, Screening Media Control DMEM, Screening Media Samples DMEM
Numbers only, in %.

Examples with answers:
> print(dat)
                                   compound  test.result
1  COc1ccnc(N2CCC3(CCCN(Cc4c[nH]c5ccccc45)C3=O)CC2)n1      14.1219
2  CCOC(=O)c1cc(C#N)c(N2CCC(C(=O)NS(=O)(=O)Cc3ccccc3)CC2)nc1C      -11.375
3  CCCSc1nc(N[C@@H]2C[C@H]2c2ccc(F)c(F)c2)c2nnn([C@@H]3C[C@H](OCCO)[C@@H](O)[C@H]3O)c2n1 [TICAGRELOR]        2.324
4  CC(C)C[C@H](NC(=O)N1CCCCCC1)C(=O)N[C@H](Cc1cn(C)c2ccccc12)C(=O)N[C@H](Cc1ccccn1)C(=O)O        3.762

Please give autophagy induction, item by item, for the list that follows.
1. Cc1csc2c(N[C@@H](C)CN3CCN(S(=O)(=O)c4ccc(Cl)c(Cl)c4)CC3)ncnc12
2. O=C1N/C(=N/c2ccccc2F)S/C1=C\c1ccc(C(=O)O)cc1
3. CC(C)NCC(O)c1ccc(N)c(C#N)c1 (stereo not given) [CIMATEROL]
4. CCc1cc(C(C)=O)c(O)cc1OCCCCCC(C)(C)c1nn[nH]n1 [LY-255283]
5. Cc1nc(C#Cc2ccnc(Cl)c2)c(C)n1-c1ccc(OC(F)(F)F)cc1
6. C[C@H](CO)Nc1nc(SCc2cccc(Cl)c2F)nc2[nH]c(=O)sc12

1: 2.53; 2: 1.845; 3: 6.803; 4: 6.9255; 5: -2.91; 6: -3.135
